Molecular target: human serum-derived IgG polyclonal antibody (#I4506; Sigma-Aldrich) (human)
Experiment: ELISA
// values below are reported OD
Give only the figure.

{"columns": ["binder", "OD"],
 "data": [
  ["R3-26 (scFv, not shown: small tags and cut ends) scFv: QEQLVESGGGLVKPGGTLTLTCTVSGIDLSSYAMSWVRQVPGKGLEWIGIIGSGGGTAYANWAKGRFTISKTSSTTVDLKMTSLTTEDTATYFCATDYGIYGYAYGHLWGPGTLVTVTSGGGGSGGGGSGGGGSELVMTQTASPVSAAVGGTVTIKCQASQSISTALAWYQQRPGQPPKLLIYDASTLASGVSSRFKGSGSGTEFTLTISDLECADAATYYCQTYFGSDTDNAFGEGTEVEITGS", 3.1]
]}

Reported OD of R3-75 (scFv, not shown: small tags and cut ends) scFv: QSVKESGGRLVTPGTPLTLTCTVSGIDLSSNAMSWVRQAPGEGLEWIGTISTVGKTYFASWAKGRFTISKTSTTVDLRITSPTTEDTATYFCATRYDSYGYAYNYWFGTLWGPGTLVTVTSGGGGSGGGGSGGGGSELDLTQTPPSVSGAVGGTVTIKCQASENINSELAWYQQKPGQRPKLLIYDASKLASGVPSRFSGSGSGTEYTLTISGMQCDDAATYYCQSTYYDGNYVYAFGGGTEVDVTRS : 3.01
